assay: Steady state plasma concentrations in subjects on chronic bupropion XL; details: steady state plasma, 5 subjects, normalized to 300 mg/day bupropion dose
assay.endpoint: Mean [I] (Range, n=5)

The cases that follow already have their Mean [I] (Range, n=5) on record.
Input CC(NC(C)(C)C)C(O)c1cccc(Cl)c1 (stereo not drawn) [Erythro-hydrobupropion, erythrohydrobupropion] . Output Mean [I] (Range, n=5): 0.29 (0.19–0.41) μM

Input C[C@H](NC(C)(C)C)[C@@H](O)c1cccc(Cl)c1 [Threo-hydrobupropion, threohydrobupropion] . Output Mean [I] (Range, n=5): 2.1 (1.1–3.5) μM

Input C[C@@H](NC(C)(C)C)C(=O)c1cccc(Cl)c1 [R-Bupropion, R-bupropion, reference compound] . Output Mean [I] (Range, n=5): 0.22 (0.05–0.34) μM

As a next step, examine the compound that follows.
Input C[C@H]1NC(C)(C)CO[C@]1(O)c1cccc(Cl)c1 . Output Mean [I] (Range, n=5): 5.0 (3.0–9.4) μM
